The reported measurements were obtained from patent US20240116928A1.

Molecular target: CD73 (Homo sapiens, UniProt P21589)
Sequence (P21589 27-549): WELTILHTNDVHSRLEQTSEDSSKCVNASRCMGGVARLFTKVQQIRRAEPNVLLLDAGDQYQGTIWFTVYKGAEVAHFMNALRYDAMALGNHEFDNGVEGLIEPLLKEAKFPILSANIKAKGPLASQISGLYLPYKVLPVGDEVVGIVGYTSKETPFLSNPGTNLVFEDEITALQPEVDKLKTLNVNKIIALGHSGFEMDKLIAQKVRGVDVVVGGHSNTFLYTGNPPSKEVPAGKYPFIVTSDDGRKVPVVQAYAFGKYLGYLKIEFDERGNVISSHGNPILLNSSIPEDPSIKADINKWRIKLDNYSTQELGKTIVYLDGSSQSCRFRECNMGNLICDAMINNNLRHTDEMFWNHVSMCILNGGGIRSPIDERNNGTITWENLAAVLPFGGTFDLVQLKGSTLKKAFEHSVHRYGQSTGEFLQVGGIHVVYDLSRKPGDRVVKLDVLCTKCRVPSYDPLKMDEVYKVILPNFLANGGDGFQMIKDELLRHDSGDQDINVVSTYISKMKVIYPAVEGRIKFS
Assay: MDA-MB-231 Cell Based CD73 Activity Assay (DMEM)
Conditions: MDA-MB-231-GFP cells, DMEM with 10% human plasma, overnight compound treatment, 200 uM AMP, 100 mins
pEC50: −log10 of the molar value.
Documented pEC50 across a set of molecules

smi | target | censoring-qualifier | pEC50
Cc1nc(-c2c[nH]c(=O)[nH]c2=O)cc(N2C[C@H](Oc3cc4c(cn3)c(C)nn4CC(F)(F)F)C(F)(F)C2)n1 | CD73 (Homo sapiens, UniProt P21589) | = | 8.20
Cc1nc(-c2c[nH]c(=O)[nH]c2=O)cc(N2C[C@H](Oc3ccnc(C(F)(F)F)c3)C(F)(F)C2)n1 | CD73 (Homo sapiens, UniProt P21589) | = | 7.48
Cc1nc(-c2c[nH]c(=O)[nH]c2=O)cc(N2C[C@H](Oc3cc(C(F)F)c(F)cn3)C(F)(F)C2)n1 | CD73 (Homo sapiens, UniProt P21589) | < | 7.30
Cc1cc(O[C@H]2CN(c3cc(-c4c[nH]c(=O)[nH]c4=O)nc(C)n3)CC2(F)F)ccn1 | CD73 (Homo sapiens, UniProt P21589) | < | 7.30
O=c1[nH]cc(-c2cc(N3C[C@H](Oc4cc5c(cn4)cnn5CC(F)(F)F)C(F)(F)C3)nc(C3CC3)n2)c(=O)[nH]1 | CD73 (Homo sapiens, UniProt P21589) | < | 7.30
Cc1nc(-c2c[nH]c(=O)[nH]c2=O)cc(N2C[C@H](Oc3ccnc(C(F)F)c3)C(F)(F)C2)n1 | CD73 (Homo sapiens, UniProt P21589) | = | 7.40
Cc1nc(-c2c[nH]c(=O)[nH]c2=O)cc(N2C[C@H](Oc3ccc(F)c(OC(F)F)c3)C(F)(F)C2)n1 | CD73 (Homo sapiens, UniProt P21589) | < | 7.30
Cc1nc(-c2c[nH]c(=O)[nH]c2=O)cc(N2C[C@H](Oc3cc(C4(C(F)(F)F)CC4)ccn3)C(F)(F)C2)n1 | CD73 (Homo sapiens, UniProt P21589) | = | 8.27
Cc1nc(-c2c[nH]c(=O)[nH]c2=O)cc(N2C[C@H](Oc3ccc4cnn(CC(F)(F)F)c4c3)C(F)(F)C2)n1 | CD73 (Homo sapiens, UniProt P21589) | = | 7.59
Cc1nc(-c2c[nH]c(=O)[nH]c2=O)cc(N2C[C@H](Oc3ccc(F)c(C(F)F)c3)C(F)(F)C2)n1 | CD73 (Homo sapiens, UniProt P21589) | < | 7.30
Cc1nc(-c2c[nH]c(=O)[nH]c2=O)cc(N2C[C@H](Oc3cc(C(F)(F)F)ccn3)C(F)(F)C2)n1 | CD73 (Homo sapiens, UniProt P21589) | < | 7.30
Cc1cc(N2C[C@H](Oc3cc4c(cn3)cnn4CC(F)(F)F)C(F)(F)C2)cc(-c2c[nH]c(=O)[nH]c2=O)n1 | CD73 (Homo sapiens, UniProt P21589) | = | 7.31
O=c1[nH]cc(-c2cc(N3C[C@H](Oc4cc5c(cn4)cnn5CC(F)(F)F)C(F)(F)C3)nc(C(F)(F)F)n2)c(=O)[nH]1 | CD73 (Homo sapiens, UniProt P21589) | = | 7.45
Cc1nc(-c2c[nH]c(=O)[nH]c2=O)cc(N2C[C@H](Oc3cc(OC(F)F)ccn3)C(F)(F)C2)n1 | CD73 (Homo sapiens, UniProt P21589) | < | 7.30
Cc1nc(-c2c[nH]c(=O)[nH]c2=O)cc(N2C[C@H](Oc3ccnc(C4(C(F)(F)F)CC4)c3)C(F)(F)C2)n1 | CD73 (Homo sapiens, UniProt P21589) | = | 8.97
Cc1nc(-c2c[nH]c(=O)[nH]c2=O)cc(N2C[C@H](Oc3ccncc3)C(F)(F)C2)n1 | CD73 (Homo sapiens, UniProt P21589) | < | 7.30
Cc1nc(-c2c[nH]c(=O)[nH]c2=O)cc(N2C[C@H](OC(=O)NC(C)C)C(F)(F)C2)n1 | CD73 (Homo sapiens, UniProt P21589) | < | 7.30
CCc1nc(-c2c[nH]c(=O)[nH]c2=O)cc(N2C[C@H](Oc3cc4c(cn3)cnn4CC(F)(F)F)C(F)(F)C2)n1 | CD73 (Homo sapiens, UniProt P21589) | = | 7.47
O=c1[nH]cc(-c2cc(N3C[C@H](Oc4cc5c(cn4)cnn5CC(F)(F)F)C(F)(F)C3)cc(C(F)(F)F)n2)c(=O)[nH]1 | CD73 (Homo sapiens, UniProt P21589) | = | 7.65
Cc1nc(-c2c[nH]c(=O)[nH]c2=O)cc(N2C[C@H](OC(=O)NC3(C(F)(F)F)CC3)C(F)(F)C2)n1 | CD73 (Homo sapiens, UniProt P21589) | = | 7.46
COc1cc(N2C[C@H](Oc3cc4c(cn3)cnn4CC(F)(F)F)C(F)(F)C2)cc(-c2c[nH]c(=O)[nH]c2=O)n1 | CD73 (Homo sapiens, UniProt P21589) | = | 7.57
Cc1nc(-c2c[nH]c(=O)[nH]c2=O)cc(N2C[C@H](Oc3cc4c(cnn4CC(F)(F)F)cc3F)C(F)(F)C2)n1 | CD73 (Homo sapiens, UniProt P21589) | < | 7.30
